Origin of the recorded values: BindingDB's records for doi:10.1016/S0960-894X(01)80278-X

Field: pIC50. Provide a value for each of the compounds that follow.
# test: Antiviral activity against HIV-1 in CEM cells
pIC50: −log10 of the molar value. Starred links: 1 amine or outer side, 2 acyl side, 3 side chain; linkers in the order of their positions; H or OH if unused. Non-standard residues stand in square brackets, D forms with d. Residues, ends and D or L forms follow the SMILES beside them. *: point of attachment. X2 = C=CCN([C@@H](C)C(=O)[*:2])[*:1]; X1 = O=C(CN(CC(Br)CBr)[*:1])[*:2]; X3 = O=C(CN(CC(Cl)CCl)[*:1])[*:2]; NAllylGly = C=CCNCC(=O)O; Boc = CC(C)(C)OC(=O)*

Task: Fill in: pIC50 of C=CCN(C(=O)[C@H](Cc1ccccc1)NC(=O)[C@H](C)NC(=O)[C@H](C)NC(=O)OC(C)(C)C)[C@@H](C)C(=O)N[C@H](C(=O)N[C@H](C(=O)OC)C(C)C)[C@@H](C)CC (Boc-AAF[X2]IV-OMe) is ___
Result: 5.41

Task: Fill in: pIC50 of CC[C@H](C)[C@H](NC(=O)CN(CC(Br)CBr)C(=O)[C@H](Cc1ccccc1)NC(=O)[C@H](C)NC(=O)OC(C)(C)C)C(=O)N[C@H](C(=O)OC)C(C)C (stereo partly specified) (Boc-AF[X1]IV-OMe) is ___
Result: < 3.21

Task: Fill in: pIC50 of C=CCN(CC(=O)N[C@H](C(=O)N[C@H](C(=O)OC)C(C)C)[C@@H](C)CC)C(=O)[C@H](Cc1ccccc1)NC(=O)[C@H](C)NC(=O)[C@H](C)NC(=O)[C@H](CO)NC(=O)OC(C)(C)C (Boc-SAAF[NAllylGly]IV-OMe) is ___
Result: < 4.61

Task: Fill in: pIC50 of C=CCN(CC(=O)N[C@H](C(=O)N[C@H](C(=O)OC)C(C)C)[C@@H](C)CC)C(=O)[C@H](Cc1ccccc1)NC(=O)[C@H](C)N (H-AF[NAllylGly]IV-OMe) is ___
Result: < 3.75

Task: Fill in: pIC50 of C=CCN(C(=O)[C@H](Cc1ccccc1)NC(=O)[C@H](C)NC(=O)OC(C)(C)C)[C@@H](C)C(=O)N[C@H](C(=O)N[C@H](C(=O)OC)C(C)C)[C@@H](C)CC (Boc-AF[X2]IV-OMe) is ___
Result: < 3.53

Task: Fill in: pIC50 of C=CCNCC(=O)N[C@H](C(=O)N[C@H](C(=O)OC)C(C)C)[C@@H](C)CC is ___
Result: < 3.71

Task: Fill in: pIC50 of C=CCN(C(=O)[C@H](Cc1ccccc1)NC(=O)[C@H](C)NC(=O)[C@H](C)NC(=O)[C@H](CO)NC(=O)OC(C)(C)C)[C@@H](C)C(=O)N[C@H](C(=O)N[C@H](C(=O)OC)C(C)C)[C@@H](C)CC (Boc-SAAF[X2]IV-OMe) is ___
Result: < 3.92

Task: Fill in: pIC50 of C=CCN(C(=O)[C@H](Cc1ccccc1)NC(=O)OC(C)(C)C)[C@@H](C)C(=O)N[C@H](C(=O)N[C@H](C(=O)OC)C(C)C)[C@@H](C)CC is ___
Result: < 4.78

Task: Fill in: pIC50 of C=CCN(CC(=O)N[C@H](C(=O)N[C@H](C(=O)OC)C(C)C)[C@@H](C)CC)C(=O)OC(C)(C)C is ___
Result: < 3.65

Task: Fill in: pIC50 of C=CCN(CC(=O)N[C@H](C(=O)N[C@H](C(=O)OC)C(C)C)[C@@H](C)CC)C(=O)[C@@H](N)Cc1ccccc1 (H-F[NAllylGly]IV-OMe) is ___
Result: < 3.69

Task: Fill in: pIC50 of CC[C@H](C)[C@H](NC(=O)CN(CC(Cl)CCl)C(=O)[C@H](Cc1ccccc1)NC(=O)[C@H](C)NC(=O)OC(C)(C)C)C(=O)N[C@H](C(=O)OC)C(C)C (stereo partly specified) (Boc-AF[X3]IV-OMe) is ___
Result: < 3.87
